Please go through the items and note down their relative viability.
test system: NCI-H1648; test: relative viability (nuclei count vs DMSO), 5 days (fraction); higher = more cells survive; settings: first compound 0.5 µM
Please give the numeric answer without any surrounding text.

Find the recorded relative viability belonging to COc1cc2nccc(Oc3ccc(NC(=O)Nc4cc(C)on4)c(Cl)c3)c2cc1OC [Tivozanib] + O=C(c1cc(Cc2n[nH]c(=O)c3ccccc23)ccc1F)N1CCN(C(=O)C2CC2)CC1 [Olaparib] (partner 8 µM) and report it.
0.713

And COc1cc2nccc(Oc3ccc(NC(=O)Nc4cc(C)on4)c(Cl)c3)c2cc1OC [Tivozanib] + COc1cccc2cc(-c3nc([C@H]4CC[C@H](C(=O)O)CC4)n4ncnc(N)c34)[nH]c12 [OSI-027] (partner 0.5 µM) ?
0.258

And Nc1ccn([C@@H]2O[C@H](CO)[C@@H](O)[C@@H]2O)c(=O)n1 [Cytarabine] + Nc1nc2[nH]cc(CCc3ccc(C(=O)N[C@@H](CCC(=O)O)C(=O)O)cc3)c2c(=O)[nH]1 [Pemetrexed] (partner 0.2 µM) ?
0.515

And Nc1ccn([C@@H]2O[C@H](CO)[C@@H](O)[C@@H]2O)c(=O)n1 [Cytarabine] + COc1cccc2cc(-c3nc([C@H]4CC[C@H](C(=O)O)CC4)n4ncnc(N)c34)[nH]c12 [OSI-027] (partner 0.5 µM) ?
0.263

And COc1cc2nccc(Oc3ccc(NC(=O)Nc4cc(C)on4)c(Cl)c3)c2cc1OC [Tivozanib] + O=C(CCCCCCC(=O)Nc1ccccc1)NO [Vorinostat] (partner 1 µM) ?
0.423
